target.or.test.system: PRMT5/MEP50 complex (Homo sapiens (Human), UniProt O14744)
Sequence (O14744 2-637): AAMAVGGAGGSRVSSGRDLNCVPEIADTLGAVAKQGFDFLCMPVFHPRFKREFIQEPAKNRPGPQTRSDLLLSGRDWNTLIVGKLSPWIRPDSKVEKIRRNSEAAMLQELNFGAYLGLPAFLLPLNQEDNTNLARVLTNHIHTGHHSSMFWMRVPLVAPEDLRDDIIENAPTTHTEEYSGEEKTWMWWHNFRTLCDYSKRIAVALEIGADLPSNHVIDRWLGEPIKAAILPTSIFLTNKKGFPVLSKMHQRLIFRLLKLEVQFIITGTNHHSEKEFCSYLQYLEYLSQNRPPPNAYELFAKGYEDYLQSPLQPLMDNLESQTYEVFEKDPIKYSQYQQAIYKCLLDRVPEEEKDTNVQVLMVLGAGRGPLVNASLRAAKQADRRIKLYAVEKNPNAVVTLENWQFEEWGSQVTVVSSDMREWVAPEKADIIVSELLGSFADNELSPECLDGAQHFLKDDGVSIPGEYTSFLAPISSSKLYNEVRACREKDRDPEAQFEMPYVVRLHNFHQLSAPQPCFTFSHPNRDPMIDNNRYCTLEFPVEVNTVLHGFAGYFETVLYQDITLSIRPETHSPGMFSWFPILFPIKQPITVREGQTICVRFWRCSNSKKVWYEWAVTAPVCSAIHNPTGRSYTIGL
Sequence (Q9BQA1 2-342 partner): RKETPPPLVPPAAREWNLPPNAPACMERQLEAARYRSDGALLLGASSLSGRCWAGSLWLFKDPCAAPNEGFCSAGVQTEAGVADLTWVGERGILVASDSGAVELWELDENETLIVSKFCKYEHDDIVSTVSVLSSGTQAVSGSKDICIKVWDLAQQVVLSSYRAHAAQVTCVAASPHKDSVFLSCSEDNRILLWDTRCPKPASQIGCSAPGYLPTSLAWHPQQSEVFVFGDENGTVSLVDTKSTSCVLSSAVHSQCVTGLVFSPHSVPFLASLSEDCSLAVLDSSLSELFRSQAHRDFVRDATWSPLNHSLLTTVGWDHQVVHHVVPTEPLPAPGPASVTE
measurement.description: PRMT5:MEP50 FlashPlate Assay (histone H4 peptide substrate, plus and minus MTA)
Type: biochemical
measurement.setup: IC50 + 2 μM MTA (nM), in the presence of 2 μM MTA
Reported IC50 by item:
API: value field is a number in nM; no unit string.

See these solved cases before continuing.
sample.smiles	target.or.test.system	IC50 / nM
NCc1n[nH]c(=O)c2ccc(-c3cncc(Cc4ccccc4)c3)cc12	PRMT5/MEP50 complex (Homo sapiens (Human), UniProt O14744)	22
Cc1c[nH]c2ncc(-c3ccc4c(=O)[nH]nc(CN)c4c3)cc12	PRMT5/MEP50 complex (Homo sapiens (Human), UniProt O14744)	10
Cn1ncc(-c2cncc(-c3ccc4c(=O)[nH]nc(CN)c4c3)c2)c1C#N	PRMT5/MEP50 complex (Homo sapiens (Human), UniProt O14744)	440
NCc1n[nH]c(=O)c2ccc(-c3cncs3)cc12	PRMT5/MEP50 complex (Homo sapiens (Human), UniProt O14744)	3700
NCc1n[nH]c(=O)c2ccc(-c3cncc(O)c3)cc12	PRMT5/MEP50 complex (Homo sapiens (Human), UniProt O14744)	1200
NCc1n[nH]c(=O)c2ccc(-c3cncc(Oc4cccnc4)c3)cc12	PRMT5/MEP50 complex (Homo sapiens (Human), UniProt O14744)	120

q: For the compound "NCc1n[nH]c(=O)c2ccc(-c3cccnc3)cc12" , what IC50 is on record?
a: 1400

q: What would you report for "Cc1c(Cl)cccc1Oc1cncc(-c2ccc3c(=O)[nH]nc(CN)c3c2)c1" ?
a: 0.7

q: What would you report for "NCc1n[nH]c(=O)c2ccc(-c3cnc4cccnn34)cc12" ?
a: 130

q: What would you report for "NCc1n[nH]c(=O)c2ccc(-c3cnc4cc(Cl)ccn34)cc12" ?
a: 140

q: What would you report for "NCc1n[nH]c(=O)c2ccc(-c3cnn4c3CN(C(=O)C3CC3)CC4)cc12" ?
a: 29
